target: histamine H3 receptor (Homo sapiens, UniProt Q9Y5N1); construct: expressed in transfected cells; host or cells: CHO K1 cells with pSwitch/pGeneH3 (GeneSwitch, mifepristone-induced), clone 3H3; membrane preparation; assay: Histamine H3 functional antagonist assay (GTPγS, membranes); format: biochemical; conditions: CHO K1 membranes, [35S]-GTPγS, histamine at EC80; read-out: average pKi (pKb) at H3 (converted)
Sequence (Q9Y5N1 whole entry, species assumed): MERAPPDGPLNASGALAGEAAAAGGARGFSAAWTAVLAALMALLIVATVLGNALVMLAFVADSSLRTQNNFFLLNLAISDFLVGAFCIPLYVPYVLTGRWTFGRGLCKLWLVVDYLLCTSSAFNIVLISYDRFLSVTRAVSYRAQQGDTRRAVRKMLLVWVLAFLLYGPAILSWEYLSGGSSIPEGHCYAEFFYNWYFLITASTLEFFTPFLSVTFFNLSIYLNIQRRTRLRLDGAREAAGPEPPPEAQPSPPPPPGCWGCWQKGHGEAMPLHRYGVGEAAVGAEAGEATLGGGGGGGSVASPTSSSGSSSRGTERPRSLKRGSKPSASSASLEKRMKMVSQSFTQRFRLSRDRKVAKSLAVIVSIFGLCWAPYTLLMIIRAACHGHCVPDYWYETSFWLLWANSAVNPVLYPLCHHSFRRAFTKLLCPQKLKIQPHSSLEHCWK
Below, each of the compounds is paired with its reported Ki value.

- COMPOUND: "CCCCc1cc(O[C@H]2CCN(CCC(=O)N(CC)CC)C2)c2ncccc2c1 [Example 40]"
  Ki: "> 316 nM"
- COMPOUND: "CCCCc1cc(O[C@@H]2CCN(CCC(=O)N3CCCCC3)C2)c2ncccc2c1 [Example 33]"
  Ki: "> 316 nM"
- COMPOUND: "CCCCc1cc(OC2CCN(CCCCNC(=O)CCC)CC2)c2ncccc2c1 [Example 65]"
  Ki: "> 316 nM"
- COMPOUND: "CCCCc1cc(OC2CCN(C[C@H]3CC[C@H](C(=O)NCCCOC)CC3)CC2)c2ncccc2c1 [Example 47]"
  Ki: "> 316 nM"
- COMPOUND: "CCCCc1cc(OC2CCN(CCNC(=O)C3CCCCC3)CC2)c2ncccc2c1 [Example 75]"
  Ki: "> 316 nM"
- COMPOUND: "CCCCc1cc(OC2CCN(CCCNC(=O)CCOC)CC2)c2ncccc2c1 [Example 82]"
  Ki: "> 316 nM"
- COMPOUND: "CCCCc1cc(OC2CCN(CC(=O)NCCOC)CC2)c2ncccc2c1 [Example 11]"
  Ki: "> 3160 nM"
- COMPOUND: "CCCCc1cc(OC2CCN(CCNC(=O)CCCOC)CC2)c2ncccc2c1 [Example 81]"
  Ki: "> 316 nM"
- COMPOUND: "CCCCCCc1cc(OC2CCN(C[C@H]3CC[C@H](C(=O)Nc4ccc(C)cc4)CC3)CC2)c2ncccc2c1 [Example 48]"
  Ki: "> 316 nM"
- COMPOUND: "CCCCc1cc(OC2CCN(CCCC(=O)NCCCOC)CC2)c2ncccc2c1 [Example 21]"
  Ki: "> 3160 nM"
- COMPOUND: "CCCCCCc1cc(OC2CCN(C[C@H]3CC[C@H](C(=O)NCc4ccc(C)cc4)CC3)CC2)c2ncccc2c1 [Example 49]"
  Ki: "> 316 nM"
- COMPOUND: "CCCCc1cc(OC2CCN(CCNC(=O)CC)CC2)c2ncccc2c1 [Example 73]"
  Ki: "> 316 nM"
- COMPOUND: "CCCCc1cc(O[C@@H]2CCN(CCCC(=O)NC(C)(C)C)C2)c2ncccc2c1 [Example 37]"
  Ki: "> 316 nM"
- COMPOUND: "CCCCc1cc(OC2CCN(CCC(=O)NC(C)C)CC2)c2ncccc2c1 [Example 19]"
  Ki: "> 3160 nM"
- COMPOUND: "CCCCc1cc(O[C@@H]2CCN(CCCC(=O)N3CCCCC3)C2)c2ncccc2c1 [Example 34]"
  Ki: "> 316 nM"
- COMPOUND: "CCCCCCc1cc(OC2CCN(C[C@H]3CC[C@H](C(=O)N4CCCCC4)CC3)CC2)c2ncccc2c1 [Example 51]"
  Ki: "> 316 nM"
- COMPOUND: "CCCCc1cc(OC2CCN(CCNC(=O)C(C)C)CC2)c2ncccc2c1 [Example 71]"
  Ki: "> 316 nM"

* * *

target: histamine H3 receptor (Homo sapiens, UniProt Q9Y5N1); construct: expressed in transfected cells; host or cells: CHO K1 cells with pSwitch/pGeneH3 (GeneSwitch, mifepristone-induced), clone 3H3; membrane preparation; assay: Histamine H3 functional antagonist assay (GTPγS, membranes); assay type: biochemical; conditions: CHO K1 membranes, [35S]-GTPγS, histamine at EC80; read-out: average pKi (pKb) at H3 (converted)
Below, each of the compounds is paired with its reported Ki value.

- COMPOUND: "CCCCc1cc(OC2CCN(C[C@H]3CC[C@H](C(=O)NC(C)C)CC3)CC2)c2ncccc2c1 [Example 42]"
  Ki: "> 316 nM"
- COMPOUND: "CCCCc1cc(O[C@@H]2CCN(CCC(=O)NC(C)(C)C)C2)c2ncccc2c1 [Example 36]"
  Ki: "> 316 nM"
- COMPOUND: "CCCCc1cc(OC2CCN(CC(=O)N3CCCCC3)CC2)c2ncccc2c1 [Example 13]"
  Ki: "> 3160 nM"
- COMPOUND: "CCCCc1cc(OC2CCN(CCCNC(=O)C(C)(C)C)CC2)c2ncccc2c1 [Example 69]"
  Ki: "> 316 nM"
- COMPOUND: "CCCCc1cc(OC2CCN(CCCCNC(=O)C(C)(C)C)CC2)c2ncccc2c1 [Example 67]"
  Ki: "> 316 nM"
- COMPOUND: "CCCCc1cc(OC2CCN(C[C@H]3CC[C@H](C(=O)Nc4ccc(C)cc4)CC3)CC2)c2ncccc2c1 [Example 59]"
  Ki: "> 316 nM"
- COMPOUND: "CCCCCCc1cc(OC2CCN(C[C@H]3CC[C@H](C(=O)NCCCOC)CC3)CC2)c2ncccc2c1 [Example 58]"
  Ki: "> 316 nM"
- COMPOUND: "CCCCc1cc(OC2CCN(CCCNC(=O)CC)CC2)c2ncccc2c1 [Example 86]"
  Ki: "> 316 nM"
- COMPOUND: "CCCCc1cc(OC2CCN(CCCNC(=O)CCC)CC2)c2ncccc2c1 [Example 70]"
  Ki: "> 316 nM"
- COMPOUND: "CCCCCCc1cc(OC2CCN(C[C@H]3CC[C@H](C(=O)NCC(C)(C)C)CC3)CC2)c2ncccc2c1 [Example 52]"
  Ki: "> 316 nM"
- COMPOUND: "CCCCc1cc(OC2CCN(CCCC(=O)NCCC)CC2)c2ncccc2c1 [Example 22]"
  Ki: "> 3160 nM"
- COMPOUND: "CCCCc1cc(OC2CCN(CCCC(=O)NC(C)(C)C)CC2)c2ncccc2c1 [Example 6]"
  Ki: "> 316 nM"
- COMPOUND: "CCCCc1cc(O[C@H]2CCN(CCCC(=O)NC(C)(C)C)C2)c2ncccc2c1 [Example 41]"
  Ki: "> 316 nM"
- COMPOUND: "CCCCCCc1cc(OC2CCN(C[C@H]3CC[C@H](C(=O)NCCC(C)C)CC3)CC2)c2ncccc2c1 [Example 50]"
  Ki: "> 316 nM"
- COMPOUND: "CCCCCCc1cc(OC2CCN(C[C@H]3CC[C@H](C(=O)NCCC)CC3)CC2)c2ncccc2c1 [Example 55]"
  Ki: "> 316 nM"
- COMPOUND: "CCCCc1cc(OC2CCN(CC(=O)N(CC)CC)CC2)c2ncccc2c1 [Example 9]"
  Ki: "> 3160 nM"
- COMPOUND: "CCCCc1cc(OC2CCN(CCC(=O)N3CCCCC3)CC2)c2ncccc2c1 [Example 18]"
  Ki: "> 316 nM"
